- Tested on: Lolium perenne (LOLPE)
- Method Description: Post-emergence efficacy, glasshouse, evaluated after 13 days
- Type: in vivo
- Assay Conditions: Lolium perenne, 312 h; post-emergence application, 500 g/Ha, evaluated after 13 days; read-out: Control of weed species LOLPE (100=total damage to plant; 0=no damage to plant)
Where a name gives a salt, the structure may show the parent alone.
Exercise: state measured pest or weed control at 500 g/ha for each of the compounds provided.
Answers are plain numbers, in %.

Compound | Test Result
C[S+]([O-])CCNC(=O)c1cc[n+](CCC(=O)O)nc1 (stereo not drawn) | 40
O=C(O)CC[n+]1ccc(C(=O)Nc2cnccn2)cn1 | 10
COCCNC(=O)c1cc[n+](CCNS(=O)(=O)[O-])nc1 | 20

Would you be so kind as to report pest or weed control at 500 g/ha for each listed record?
1. CC(C)N(C)C(=O)c1cc[n+](CCC(=O)O)nc1
2. CNC(=O)c1cc[n+](CCCS(=O)(=O)[O-])nc1
3. CC(CO)NC(=O)c1cc[n+](CCC(=O)O)nc1 (stereo not drawn)
4. CC(C)CNC(=O)c1cc[n+](CCC(=O)O)nc1
5. O=C(O)CC[n+]1ccc(C(=O)NCc2ccc(F)cc2)cn1

Response:
[30, 30, 50, 70, 40]

I'm hoping you can list pest or weed control at 500 g/ha for every compound here, please.
1. C#CCNC(=O)c1cc[n+](CCC(=O)O)nc1
2. COCCNC(=O)c1cc[n+](CCCOS(=O)(=O)[O-])nc1
3. CN(C(=O)c1cc[n+](CCC(=O)O)nc1)c1ccccc1 [Compound A38, trifluoroacetate]
4. CN1CCN(C(=O)c2cc[n+](CCC(=O)O)nc2)CC1

Response:
1. 70
2. 60
3. 20
4. 0

Give one value of pest or weed control at 500 g/ha per listed compound.
1. CCS(=O)(=O)CCNC(=O)c1cc[n+](CCC(=O)O)nc1
2. CC(=O)CCNC(=O)c1cc[n+](CCC(=O)O)nc1
3. CC1CC1NC(=O)c1cc[n+](CCC(=O)O)nc1 (stereo not drawn)

Response:
[50, 70, 80]

Below is a list of compounds. For each, state its recorded pest or weed control at 500 g/ha.
1. CC(C)(CO)NC(=O)c1cc[n+](CCC(=O)O)nc1
2. CS(=O)(=O)CCNC(=O)c1cc[n+](CCNS(=O)(=O)[O-])nc1
3. O=C(O)CC[n+]1ccc(C(=O)Nc2nccs2)cn1
4. O=C(O)CC[n+]1ccc(C(=O)NCc2ccccn2)cn1

Response:
1: 50; 2: 70; 3: 0; 4: 70

Answer for every listed entry: what is its pest or weed control at 500 g/ha? The entries follow.
1. CC(C)NC(=O)c1cc[n+](CCS(=O)(=O)O)nc1
2. CC1(C)CC(CCNC(=O)c2cc[n+](CCC(=O)O)nc2)=NO1 [Compound A148, 2,2,2-trifluoroacetate]
3. CCSCCNC(=O)c1cc[n+](CCC(=O)O)nc1
4. O=C(O)CC[n+]1ccc(C(=O)NCc2nccs2)cn1
5. O=C(O)CC[n+]1ccc(C(=O)NC2CCCC2)cn1
6. CCNC(=O)c1cc[n+](CCNS(=O)(=O)C(F)(F)F)nc1
7. CN(C)C(=O)c1cc[n+](CCCS(=O)(=O)O)nc1

Response:
1. 50
2. 30
3. 40
4. 100
5. 90
6. 60
7. 10

// batch mode: one pest or weed control at 500 g/ha value per listed entry
1. CCNC(=O)c1cc[n+](CCOS(=O)(=O)[O-])nc1
2. O=C(O)CC[n+]1ccc(C(=O)NC2C[S+]([O-])C2)cn1 (stereo not drawn)
3. CNC(=O)c1cc[n+](CCC(=O)O)nc1-c1ccccc1
4. CN(C)S(=O)(=O)CCNC(=O)c1cc[n+](CCC(=O)O)nc1

Response:
[70, 90, 0, 60]

For each entry beneath this line, provide reported pest or weed control at 500 g/ha.
1. CC(C#N)NC(=O)c1cc[n+](CCC(=O)O)nc1 (stereo not drawn)
2. CC1(C)CC1NC(=O)c1cc[n+](CCC(=O)O)nc1 (stereo not drawn)
3. O=C(O)CC[n+]1ccc(C(=O)NC2CC2)cn1

Response:
60
100
70

# batch size: 6; output pest or weed control at 500 g/ha per entry
1. COCCNC(=O)c1cc[n+](CCS(=O)(=O)[O-])nc1
2. CC(CS(C)(=O)=O)NC(=O)c1cc[n+](CCC(=O)O)nc1 (stereo not drawn)
3. C=CCNC(=O)c1cc[n+](CCS(=O)(=O)[O-])nc1
4. O=C(NCc1ccc(F)cc1)c1cc[n+](CCS(=O)(=O)[O-])nc1
5. CC(C)N(C)C(=O)c1cc[n+](CCS(=O)(=O)O)nc1
6. O=C(O)CC[n+]1ccc(C(=O)NCCO)cn1

Response:
1. 30
2. 60
3. 70
4. 20
5. 30
6. 30
